All values here come from PubChem BioAssay (NCI).

# Measurement protocol: NCI Yeast Anticancer Drug Screen. Data for the cln2 rad14 strain (AID 165)
# Experimental context: S. cerevisiae cln2 rad14 strain, at 50.0 µM, stronger effect = higher value
# Procedure: Growth inhibition of yeast strains with defined genetic alterations is measured as a screen for potential anti-cancer activity. Selected strains with alterations in DNA damage repair or cell cycle control were exposed to compounds and growth inhibition was measured relative to vehicle treated controls. The strain used in this assay is cln2 rad14
This is part of a sample that, as a whole, favours compounds with a hit. Of some 79,000 tested, about 15% had one in any assay.
Would you please tag the item Satisfied when its growth inhibition is 10% or above, and Not satisfied when it is below?

{"columns": ["Compound", "Assigned label"],
 "data": [
  ["O=C(Oc1c(Cl)c(Cl)c(Cl)c(Cl)c1Cl)Oc1c(Cl)c(Cl)c(Cl)c(Cl)c1Cl", "Not satisfied"],
  ["CN(C)Cc1c[nH]c2nc[nH]c(=O)c12", "Not satisfied"],
  ["CN(C)c1ccc(/C=C(\\NC(=O)c2ccccc2)C(=O)NC(CC(=O)O)C(=O)O)cc1 (centres undefined)", "Not satisfied"],
  ["O=S(=O)(O)C(c1ccccc1)C(O)c1ccccc1 (centres undefined)", "Not satisfied"],
  ["CC(C)(C)OC(=O)[N+](=N)C(=O)C1CCC(=O)N1C(=O)OCc1ccccc1 (centres undefined)", "Not satisfied"],
  ["O=C(Cc1nc(-c2ccccc2)cc(=O)n1-c1ccccc1Cl)c1ccncc1", "Satisfied"],
  ["O=c1[nH]c(=O)n(C2OC(COP(=O)(O)OP(=O)(O)OC3OC(CO)C(O)C(O)C3O)C(O)C2O)cc1F (centres undefined)", "Satisfied"],
  ["Cc1ccc2nc(N(C)C)nc-2c2[nH]c(=O)[nH]c12", "Not satisfied"],
  ["NC(=O)NC(=S)NC(=O)c1ccccc1", "Not satisfied"],
  ["COC(=O)C1(CC(=O)c2ccc(F)cc2)NC(=S)NC(=O)C1C#N (centres undefined)", "Not satisfied"],
  ["C#CCN(N=O)C(=O)NC(CCCCNC(=O)OCc1ccccc1)C(=O)OCc1ccccc1 (centres undefined)", "Not satisfied"],
  ["CCOC(=O)CCC(NC(=O)c1ccc(NCc2nc3c([nH]2)c(=O)n(C)c(=O)n3C)cc1)C(=O)OCC (centres undefined)", "Not satisfied"],
  ["C#CC(CC(C)CC(C)(C)C)N(C)C (centres undefined)", "Satisfied"],
  ["COc1ccc(C(=O)c2ccc(OC)cc2)cc1", "Not satisfied"],
  ["CC1=C(C(=O)O)CCc2ccccc21", "Satisfied"],
  ["C=CCn1c(SCc2ccccc2)nccc1=O", "Not satisfied"],
  ["Cc1ccccc1N=C(N)NC#N", "Not satisfied"],
  ["O=C(O[C@H]1[C@@H]2C=CO[C@@H](OC3OC(CO)C(O)C(O)C3O)[C@@H]2[C@@]2(CO)O[C@@H]12)c1ccc(O)c(O)c1 (some centres undefined)", "Not satisfied"],
  ["CCOC(=O)C(c1ccccc1)C(Cc1ccccc1)(c1ccccc1)c1ccccc1 (centres undefined)", "Satisfied"],
  ["Cc1cc(O)c(/C=N/c2nc(-c3ccc([N+](=O)[O-])cc3)cs2)c(=O)o1", "Satisfied"],
  ["Cc1ncc(CO)c(/C=N\\Nc2ccc([N+](=O)[O-])cc2[N+](=O)[O-])c1O", "Not satisfied"],
  ["COc1ccc(N2C(=O)C3c4[nH]c5ccccc5c4C4CC(C)CC(C)C4C3C2=O)cc1 (centres undefined)", "Not satisfied"],
  ["CCCCCCC1C=CC(CCCCCCCC(=O)O)C(/C=C/CCCCCCCC(=O)O)C1CCCCCC (centres undefined)", "Satisfied"],
  ["CN(C)C(=O)NNC(=O)N(C)C", "Not satisfied"],
  ["O=C1NC=NC1c1ccccc1 (centres undefined)", "Not satisfied"],
  ["c1ccc(C(C2=Nc3cccc4cccc(c34)N2)c2ccccc2)cc1", "Satisfied"],
  ["CC(C)NCC(O)COc1cccc2ccccc12 (centres undefined)", "Satisfied"],
  ["c1ccc(-c2nc(-c3ccccc3)n3nc4c(c3c2-c2ccccc2)CCCCCC4)cc1", "Not satisfied"],
  ["O=CN(Cc1cnccn1)Cc1cnccn1", "Not satisfied"],
  ["COc1cc(C2c3cc4c(cc3OC(NC3CCCCC3)C2C)OCO4)cc(OC)c1OC (centres undefined)", "Satisfied"],
  ["Cc1ccc2nc[nH]c(=O)c2c1", "Not satisfied"],
  ["NC(=O)NC(Cc1ccccc1)(C(=O)O)c1ccccc1 (centres undefined)", "Not satisfied"],
  ["CCOC(=O)C(=CNc1cccc(Cl)c1)C(=O)OCC", "Not satisfied"]
]}
